# measuredTarget: Inhibitor of nuclear factor kappa-B kinase subunit beta (Homo sapiens) (UniProt O14920)
# Sequence (O14920 whole entry): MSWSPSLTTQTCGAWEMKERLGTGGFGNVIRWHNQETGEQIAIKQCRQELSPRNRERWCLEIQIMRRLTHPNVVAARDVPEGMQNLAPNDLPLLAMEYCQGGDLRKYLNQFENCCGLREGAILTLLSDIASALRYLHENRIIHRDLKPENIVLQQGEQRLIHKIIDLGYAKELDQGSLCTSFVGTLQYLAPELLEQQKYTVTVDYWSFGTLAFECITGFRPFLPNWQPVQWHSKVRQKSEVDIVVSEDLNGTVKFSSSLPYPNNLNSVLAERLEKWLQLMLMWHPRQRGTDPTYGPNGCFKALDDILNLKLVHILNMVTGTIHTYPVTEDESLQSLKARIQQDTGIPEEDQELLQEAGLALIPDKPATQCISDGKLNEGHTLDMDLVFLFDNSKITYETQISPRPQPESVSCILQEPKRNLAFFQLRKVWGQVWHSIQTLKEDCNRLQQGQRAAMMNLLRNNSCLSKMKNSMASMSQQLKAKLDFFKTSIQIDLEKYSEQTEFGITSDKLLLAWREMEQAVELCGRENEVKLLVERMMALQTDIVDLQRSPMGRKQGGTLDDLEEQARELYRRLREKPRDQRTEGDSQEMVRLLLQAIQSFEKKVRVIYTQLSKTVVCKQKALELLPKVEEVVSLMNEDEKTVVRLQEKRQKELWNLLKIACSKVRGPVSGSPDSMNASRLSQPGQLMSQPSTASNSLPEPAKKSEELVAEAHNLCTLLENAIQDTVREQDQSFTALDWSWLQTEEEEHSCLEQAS
# conditionSummary: at 1 µM
assayMetric: inhibition (%)

compound=CNC(=O)c1cncc(/C=C/c2ccccc2Cl)c1 obsvalue=-5
compound=COc1cc(Nc2nccc(-c3cnn4ncccc34)n2)cc(OC)c1 obsvalue=-9
compound=Fc1ccc(-c2nn3ccccc3c2-c2ccncc2)cc1 obsvalue=-5
compound=CCn1c(-c2nonc2N)nc2c(C#CC(C)(C)O)ncc(OCC3CCNCC3)c21 obsvalue=-3
compound=CN1CCC(C(=O)Nc2n[nH]c3nnc(-c4ccccc4)cc23)CC1 obsvalue=-4
compound=NC(=O)Cc1ccccc1Oc1nccc(-c2c(-c3ccc(F)cc3)ncn2C2CCNCC2)n1 obsvalue=-1
compound=COc1ccc(-c2ccc3c(NC(=O)C4CC4)n[nH]c3n2)cc1 obsvalue=-5
compound=O=C(Nc1n[nH]c2nnc(-c3cccnc3)cc12)C1CC1 obsvalue=2
compound=COc1cc(Nc2nccc(Nc3ccc4c(C)n[nH]c4c3)n2)cc(OC)c1OC obsvalue=-2
compound=COc1cc2ncn(-c3cc(O[C@@H](C)c4ccccc4Cl)c(C(N)=O)s3)c2cc1OC obsvalue=1
compound=CS(=O)(=O)CCNCc1ccc(-c2ccc3ncnc(Nc4ccc(OCc5ccccc5)c(Cl)c4)c3c2)o1 obsvalue=1
compound=Cc1ccc(NC(=O)c2ccoc2)cc1-c1ccc(C(=O)NCC2CC2)cc1 obsvalue=-5
compound=COc1cc(C=NNc2ncnc3c2cnn3Cc2ccccc2)ccc1O obsvalue=-7
compound=Cc1ccc(NC(=O)c2ccnc(N3CCCC3)c2)cc1-c1ccc(C(=O)NCC2CC2)cc1 obsvalue=2
compound=Nc1ncnc2occ(-c3ccc(NC(=O)Nc4cc(C(F)(F)F)cc(C(F)(F)F)c4)cc3)c12 obsvalue=-4
compound=COc1cccc(-n2ncc3c(N/N=C/c4ccc(S(C)(=O)=O)cc4)ncnc32)c1 obsvalue=-1
compound=COc1cc(/C=N/Nc2ncnc3[nH]ncc23)ccc1O obsvalue=-10
compound=c1cnn2ncc(-c3ccnc(NCCCN4CCOCC4)n3)c2c1 obsvalue=-2
compound=COc1cc(C=NNc2ncnc3c2cnn3-c2ccccc2)ccc1O obsvalue=2
compound=COc1cc2c(cc1Nc1nc(N3CCc4ccccc43)c3cc[nH]c3n1)N(C(=O)CN(C)C)CC2 obsvalue=-6
compound=COc1c(C(N)=O)cc(-c2ccc(Cl)cc2)cc1-c1ccc(S(N)(=O)=O)cc1 obsvalue=1
compound=CCn1c(-c2nonc2N)nc2c(C#CC(C)(C)O)nc(OCCNC)cc21 obsvalue=-2
compound="CC1=C(C(=O)Nc2ccc3[nH]ncc3c2)C(c2ccc(Cl)c(Cl)c2)CC(=O)N1 (centres undefined)" obsvalue=2
compound="CC1=C(C(=O)Nc2ccc3[nH]ncc3c2)C(c2ccc3ccccc3c2)CC(=O)N1 (centres undefined)" obsvalue=-3
compound=Fc1ccc(-c2ncn(C3CCNCC3)c2-c2ccnc(Oc3ccc(Oc4ccccc4)cc3)n2)cc1 obsvalue=0
compound=Cc1ccc(C(=O)NC2CC2)cc1-c1ccc2[nH]ncc2c1 obsvalue=0
compound=Fc1ccc(-c2ncn(C3CCNCC3)c2-c2ccnc(Oc3ccc(F)c(F)c3)n2)cc1 obsvalue=-3
compound=COC(=O)Nc1nc2ccc(Sc3ccc(NC(=O)Nc4cc(C(F)(F)F)ccc4F)cc3)cc2[nH]1 obsvalue=-3
compound=CCn1c(-c2nonc2N)nc2c(C#CC(C)(C)O)ncc(OC3CCNCC3)c21 obsvalue=-4
compound=NS(=O)(=O)c1ccc(N/N=C2\C(=O)Nc3ccc(-c4cnco4)cc32)cc1 obsvalue=-2
compound=CN1CCN(Cc2ccc(-c3cc4ncnc(Nc5ccc(OCc6cccc(F)c6)c(Cl)c5)c4s3)o2)CC1 obsvalue=-3
compound=c1cnn2ncc(-c3ccnc(Nc4ccc5c(c4)OCCO5)n3)c2c1 obsvalue=-4
compound=NS(=O)(=O)c1cccc(Nc2cc(-c3ccc(F)cc3)n[nH]2)c1 obsvalue=-2
compound=Cc1nnc(-c2cccc(-c3ccc(C(=O)NCC4CC4)cc3)c2)o1 obsvalue=-4
